Each entry below carries its recorded composite z-score.
# TARGET OF ASSAY: Torsin-1A (Homo sapiens)
# PROTOCOL NOTES: torsin A binders from cell lysate, primary screen, small-molecule microarray, wild-type, 635/667 nm (AID 1149)
# STUDY CONDITIONS: COS7 hTOR1A-WT lysate, 635 nm fluorescence, higher = more signal
OUTCOME MEASURE: composite z-score

[[record]]
molecule = "CC(CO)N1C(=O)[C@@H]2C3C(=O)OCCC/C=C\\[C@H]3OC23C=CCN(C(C)(C)C)C(=O)[C@@H]13 (some centres not stated)"
readout_value = 1.17

[[record]]
molecule = "CCOC(=O)C[C@H]1[C@H](OC(=O)c2ccc(C(=O)c3ccccc3)cc2)[C@@H](NC(=O)c2ccccc2)c2cc(OCCCO)ccc2N1C(=O)c1ccc2ccccc2n1"
readout_value = 0.478

[[record]]
molecule = "CCCCCCc1nc(-c2cc(C)c(OC)c(C)c2)cc2c1[Si](C(C)C)(C(C)C)OC2"
readout_value = -0.646

[[record]]
molecule = "C=C(COC)/C(=C/C[C@H](OC(C)=O)c1ccc(CO)o1)c1cc(C(=O)OC)ccc1OC"
readout_value = -0.156

[[record]]
molecule = "C=CCNC(=O)[C@@H]1[C@H]2C(=O)O[C@H](c3ccccc3)[C@H](c3ccccc3)N2[C@H](c2ccc(O)cc2)[C@@]12C(=O)Nc1ccc(C#CCNC(N)=O)cc12"
readout_value = -0.138

[[record]]
molecule = "C=CCN1C(=O)[C@]2(O[C@H](CCn3cc([C@H](O)c4ccccc4)nn3)[C@@H]([Si](C)(C)c3ccc(OC)cc3)[C@@H]2C)c2ccccc21"
readout_value = -0.704

[[record]]
molecule = "NC(=O)NCC#Cc1ccc2c(c1)[C@]1(C(=O)N2)[C@H](c2ccccc2OCCO)N2[C@H](c3ccccc3)[C@H](c3ccccc3)OC(=O)[C@H]2[C@@H]1C(=O)Nc1nc2ccccc2s1"
readout_value = -0.671


Data provenance: PubChem BioAssay
